- System: Escherichia coli TOP10;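 further: peptides expressed intracellularly from a pBAD plasmid library in pooled LB shake-flask culture, induced with 0.3% L-arabinose, DNA abundance read by NGS, three biological replicates, DESeq2 with apeglm shrinkage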
- assay: shrunken log2 fold change of peptide-encoding DNA abundance (4.5 h post-induction vs induction); higher = less antimicrobial activity (less host growth inhibition)
- assayContext: time post-induction: 4.5 h; library: site-saturation at positions 5, 18, 19, 20
Kind request: treat 0.003 as inclusive, so shrunken log2 fold change at 0.003 or higher is 1, anything lower is 0.

Solved cases below.
biosequence: RRIRHRPPRLPRPRPRPSIAPRP
discreteLabel: 0

biosequence: RRIRWRPPRLPRPRPRPSGWPRP
discreteLabel: 1

biosequence: RRIRERPPRLPRPRPRPDRIPRP
discreteLabel: 0

biosequence: RRIRSRPPRLPRPRPRPGMFPRP
discreteLabel: 1

biosequence: RRIRTRPPRLPRPRPRPLMWPRP
discreteLabel: 0

biosequence: RRIRFRPPRLPRPRPRPNWAPRP
discreteLabel: 0

biosequence: RRIRARPPRLPRPRPRPAYCPRP
discreteLabel: 0

biosequence: RRIRDRPPRLPRPRPRPEECPRP
discreteLabel: 0

biosequence: RRIRMRPPRLPRPRPRPGQEPRP
discreteLabel: 1

biosequence: RRIRTRPPRLPRPRPRPRREPRP
discreteLabel: 1

In plain terms: is recorded shrunken log2 fold change at least 0.003 for RRIRLRPPRLPRPRPRPSMQPRP ?
0

Tell me whether shrunken log2 fold change is at least 0.003 here: RRIRHRPPRLPRPRPRPSMTPRP
1

Decide: is the reported value of shrunken log2 fold change for RRIRIRPPRLPRPRPRPGASPRP equal to or greater than 0.003?
1

Given the entry RRIRWRPPRLPRPRPRPEHVPRP , answer whether its shrunken log2 fold change meets or surpasses 0.003.
1

# check: shrunken log2 fold change of RRIRARPPRLPRPRPRPMVAPRP is greater than or equal to 0.003
1

Answer whether shrunken log2 fold change of RRIRVRPPRLPRPRPRPFQHPRP is greater than or equal to 0.003.
0

Does the sequence RRIRCRPPRLPRPRPRPNTCPRP have recorded shrunken log2 fold change that is 0.003 or more?
0

Hello, I need to know if RRIRLRPPRLPRPRPRPVQWPRP has measured shrunken log2 fold change not below 0.003. Thanks!
1

Form field: shrunken log2 fold change at least 0.003? Entry: RRIRYRPPRLPRPRPRPHHAPRP
0

Hey, just so you know, these numbers are from the supplement of paper PMC9112550.
